Source of measurements: patent US11492347B2

system: H1N1 (influenza A/New Caledonia/20/99); experiment: microbe, parasite or virus in culture; assay type: cell-based; settings: H1N1, A549, 48 h
pIC50: −log10 of the molar value.
Think of 7 as a floor: if pIC50 stands on it or above, it is criterion met; beneath it, criterion not met.

- compound: "COCCNc1ccc(C(=O)Nc2sc3c(c2C(=O)O)CC(C)(C)CC3(C)C)cc1 [Compound #60]"
  qualitative-label: "criterion met"
- compound: "COCCn1ccc(C(=O)Nc2sc3c(c2C(=O)O)CC(C)(C)CC3)n1 [#226]"
  qualitative-label: "criterion not met"
- compound: "CC1(C)CCc2c(sc(NC(=O)c3cccc(N4CCOCC4)n3)c2C(=O)O)C1 [#219]"
  qualitative-label: "criterion not met"
- compound: "COc1cccc(C(=O)Nc2sc3c(c2C(=O)O)CCC(C)(C)C3)c1 [Compound #21]"
  qualitative-label: "criterion met"
- compound: "COc1ccc(C(=O)Nc2sc3c(c2C(=O)O)C(C)(C)CC3)cc1OC [Compound #38]"
  qualitative-label: "criterion not met"
- compound: "CC1(C)CCc2sc(NC(=O)c3ccc(N4CCC(O)CC4)cc3)c(C(=O)O)c21 [Compound #78]"
  qualitative-label: "criterion not met"
- compound: "Cc1ccccc1C(=O)Nc1sc2c(c1C(=O)O)CCC(C#N)(c1ccccc1)C2 (centres unmarked) [Compound #105]"
  qualitative-label: "criterion not met"
- compound: "CC1(C)Cc2c(sc(NC(=O)c3ccc(N4CCC5(CC4)COC5)cc3)c2C(=O)O)C(C)(C)C1 [Compound #144]"
  qualitative-label: "criterion met"
- compound: "CC1(C)CCc2sc(NC(=O)c3ccc(Br)cc3)c(C(=O)O)c21 [Compound #158]"
  qualitative-label: "criterion not met"
- compound: "COC1CN(c2ccc(C(=O)Nc3sc4c(c3C(=O)O)CC(C)(C)CC4(C)C)cc2)C1 [Compound #58]"
  qualitative-label: "criterion met"
- compound: "CC1(C)Cc2c(sc(NC(=O)c3ccc(N4CCOCC4)cc3)c2C(=O)O)C(C)(C)C1 [Compound #36]"
  qualitative-label: "criterion met"
- compound: "CC(=O)N1CC(Nc2ccc(C(=O)Nc3sc4c(c3C(=O)O)CC(C)(C)CC4(C)C)cc2)C1 [Compound #133]"
  qualitative-label: "criterion not met"
- compound: "CC1CC(C)(C)Cc2sc(NC(=O)c3ccc(N(C)C4CCOCC4)cc3)c(C(=O)O)c21 (centres unmarked) [#171]"
  qualitative-label: "criterion met"
- compound: "CC1(C)CCc2sc(NC(=O)c3ccc(OC(F)(F)F)cc3)c(C(=O)O)c21 [Compound #40]"
  qualitative-label: "criterion not met"
- compound: "CN(c1ccc(C(=O)Nc2sc3c(c2C(=O)O)CC(C)(C)CC3)cc1)C1CCOCC1 [#160]"
  qualitative-label: "criterion met"
